biological target: human RXFP1 (Homo sapiens, UniProt Q9HBX9); test: RXFP1 Hu cAMP (Test A); type: cell-based; set-up: expressed in transfected cells; host or cells: Jump-In T-REx CHO-K1 cells (ThermoFisher), induced with 10 ng/ml doxycycline for 24 h; details: RXFP1 Hu cAMP; read-out: Test A EC50
Sequence (Q9HBX9 whole entry): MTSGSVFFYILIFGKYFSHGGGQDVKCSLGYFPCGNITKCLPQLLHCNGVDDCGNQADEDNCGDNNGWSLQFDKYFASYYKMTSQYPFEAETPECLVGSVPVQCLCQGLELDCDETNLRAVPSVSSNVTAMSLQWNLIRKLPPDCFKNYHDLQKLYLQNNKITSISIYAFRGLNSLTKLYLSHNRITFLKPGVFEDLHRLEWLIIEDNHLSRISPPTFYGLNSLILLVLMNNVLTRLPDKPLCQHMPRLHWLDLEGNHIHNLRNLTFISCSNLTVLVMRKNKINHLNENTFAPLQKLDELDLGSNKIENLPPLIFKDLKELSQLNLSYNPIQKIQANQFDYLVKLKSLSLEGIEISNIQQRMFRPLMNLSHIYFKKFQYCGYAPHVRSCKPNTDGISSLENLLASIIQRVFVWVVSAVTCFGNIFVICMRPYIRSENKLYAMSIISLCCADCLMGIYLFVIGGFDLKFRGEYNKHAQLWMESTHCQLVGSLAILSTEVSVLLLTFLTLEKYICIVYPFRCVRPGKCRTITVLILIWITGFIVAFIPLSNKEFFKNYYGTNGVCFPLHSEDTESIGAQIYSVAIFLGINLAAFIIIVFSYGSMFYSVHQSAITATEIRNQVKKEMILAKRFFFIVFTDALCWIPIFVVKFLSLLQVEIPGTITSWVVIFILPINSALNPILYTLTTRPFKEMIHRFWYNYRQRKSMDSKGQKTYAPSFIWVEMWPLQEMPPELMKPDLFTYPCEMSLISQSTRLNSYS
Readout type: EC50 (nM)

[I] COc1cc(F)c(OC2CCC(N)(C(=O)O)CC2)cc1C(=O)N[C@@H]1[C@H]2CC[C@H](C2)[C@@H]1C(=O)Nc1cccc(S(=O)(=O)C(F)(F)F)c1 (stereo partly shown) [Example 458]
[II] COc1cc(F)c(OC2CCC(C)(CC(=O)O)CC2)cc1C(=O)NC1C2CCC(C2)C1C(=O)NCC1(C)CCC1 (stereo not shown) [Example 476]
[III] COc1cc(F)c(-c2c[nH]c(C(=O)O)c2)cc1C(=O)N[C@H]1[C@@H](C(=O)Nc2cccc(S(=O)(=O)C(F)(F)F)c2)[C@@H]2C=C[C@H]1C2 (racemic) [Example 229]
Highest EC50 first, then in falling order down to the smallest. Quick reminder: the answer is the labels in the order asked. III, II, I
(III: 3300 nM, II: 300 nM, I: 110 nM)
